- Test system: CCRF-CEM
- MEASUREMENT_PROTOCOL: Cytotoxicity against vinblastine-resistant human CCRF-CEM cells after 72 hrs by XTT assay
- Type: functional, cell-based
# reported pIC50; entries follow
Kindly note that pIC50 refers to -log10 of the concentration in mol/L and answer with the value alone.

Sample records with pIC50:
ITEM_SMILES	MEASURED_TARGET	QUANTITY	EXPERIMENTAL_RESULT
Cl.O=C(Nc1ccc(N(CCCl)CCCl)cc1)Nc1cccc(C(=O)NCCN2CCCC2)c1	CCRF-CEM	pIC50	4.44
Cl.O=C(Nc1ccc(N(CCCl)CCCl)cc1)Nc1cccc(C(=O)NCCN2CCCCC2)c1	CCRF-CEM	pIC50	4.98
Cl.O=C(Nc1ccc(OCCN2CCCC2)cc1)Nc1ccc(N(CCCl)CCCl)cc1	CCRF-CEM	pIC50	5.69
CN(C)CCOc1ccc(NC(=O)Nc2ccc(N(CCCl)CCCl)cc2)cc1.Cl	CCRF-CEM	pIC50	5.92
CN(C)CCCNC(=O)c1ccc(NC(=O)Nc2ccc(N(CCCl)CCCl)cc2)cc1.Cl	CCRF-CEM	pIC50	4.48

# pIC50 of Cl.O=C(Nc1ccc(N(CCCl)CCCl)cc1)Nc1cccc(C(=O)NCCN2CCOCC2)c1 = 4.79

Cl.O=C(Nc1ccc(OCCN2CCOCC2)cc1)Nc1ccc(N(CCCl)CCCl)cc1 yielded pIC50 of 6.19

Recorded result, CN(C)CCNC(=O)c1cccc(NC(=O)Nc2ccc(N(CCCl)CCCl)cc2)c1.Cl , pIC50: 6.10

Quick note, pIC50 for CN(C)CCNC(=O)c1ccc(NC(=O)Nc2ccc(N(CCCl)CCCl)cc2)cc1.Cl landed at 5.17

Source of measurements: ChEMBL document CHEMBL1641520
